Cited source: the supplement of paper PMC7125110

B1: glmS ribozyme (parent)
chain: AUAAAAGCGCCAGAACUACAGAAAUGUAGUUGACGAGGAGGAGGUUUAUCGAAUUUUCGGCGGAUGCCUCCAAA

- Variants of: B1
- assay: self-cleavage kobs at 160 uM GlcN6P; higher = faster cleavage; RNA array
- measurement_parameters: with glucosamine-6-phosphate
Fewer inactive variants are shown than the library holds.
// reported self-cleavage kobs at 160 uM GlcN6P per item

- mutant: "A14G U31G G41C"
  experimental_readout: "self-cleavage kobs at 160 uM GlcN6P"
  value_reported: "< 1e-05 s⁻¹"
- mutant: "A6G G7U"
  experimental_readout: "self-cleavage kobs at 160 uM GlcN6P"
  value_reported: "< 1e-05 s⁻¹"
- mutant: "A42G U46C"
  experimental_readout: "self-cleavage kobs at 160 uM GlcN6P"
  value_reported: "0.000237 s⁻¹"
- mutant: "C50G C67U"
  experimental_readout: "self-cleavage kobs at 160 uM GlcN6P"
  value_reported: "0.000129 s⁻¹"
- mutant: "C34U A36G"
  experimental_readout: "self-cleavage kobs at 160 uM GlcN6P"
  value_reported: "< 1e-05 s⁻¹"
- mutant: "G59A G63C"
  experimental_readout: "self-cleavage kobs at 160 uM GlcN6P"
  value_reported: "< 1e-05 s⁻¹"
- mutant: "A15C C50G G66U"
  experimental_readout: "self-cleavage kobs at 160 uM GlcN6P"
  value_reported: "5.42e-05 s⁻¹"
- mutant: "A39U C67G"
  experimental_readout: "self-cleavage kobs at 160 uM GlcN6P"
  value_reported: "0.000514 s⁻¹"
- mutant: "C10A A42C"
  experimental_readout: "self-cleavage kobs at 160 uM GlcN6P"
  value_reported: "< 1e-05 s⁻¹"
- mutant: "A48C G60A C61A"
  experimental_readout: "self-cleavage kobs at 160 uM GlcN6P"
  value_reported: "< 1e-05 s⁻¹"

Data point: G41C G66U ; self-cleavage kobs at 160 uM GlcN6P = < 1e-05 s⁻¹

Sure, the documented self-cleavage kobs at 160 uM GlcN6P for C8G A12U G63U is < 1e-05 s⁻¹
